Numbers sourced from patent US20230213527A1.

Target: PS621 (Kluyveromyces lactis, UniProt O60014, E174T/N105S/N176F/R116K/S153T/V146T)
Construct: PS621; […]
Sequence (O60014 other isoform, or with tags, fused parts or gaps N105S/R116K/V146T/S153T/E174T/N176F): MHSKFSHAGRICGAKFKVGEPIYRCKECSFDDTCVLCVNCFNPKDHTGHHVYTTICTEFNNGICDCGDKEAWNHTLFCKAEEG
Experiment: Dynamic single-molecule sequencing, recognition by PS621
Type: binding
Settings: RS duration, unmodified arginine peptide, average of 10 sequencing reactions
Recorded RS R-X, one value per entry.
endpoint name: RS R-X (min)

{"sequence record": "LRYAFAYPDDDK [QP746]", "endpoint name": "RS R-X", "meas value": 9.6}
{"sequence record": "LRIAFAYPDDDK [QP749]", "endpoint name": "RS R-X", "meas value": 15.4}
{"sequence record": "LRLAFAYPDDDK [QP707]", "endpoint name": "RS R-X", "meas value": 17.3}
{"sequence record": "LRVAFAYPDDDK [QP943]", "endpoint name": "RS R-X", "meas value": 25.5}

----------
Target: PS621 (Kluyveromyces lactis, UniProt O60014, E174T/N105S/N176F/R116K/S153T/V146T)
Construct: PS621; […]
Experiment: Dynamic single-molecule sequencing, recognition by PS621
Assay type: binding
Details: RS duration, ADMA peptide, average of 10 sequencing reactions

{"sequence record": "LRADMAYAFAYPDDDK [QP742]", "units text": "min", "RS ADMA-X": 39.2}
{"sequence record": "LRADMAVAFAYPDDDK [QP946]", "units text": "min", "RS ADMA-X": 33.8}
{"sequence record": "LRADMALAFAYPDDDK [QP729]", "units text": "min", "RS ADMA-X": 48.5}
{"sequence record": "LRADMAIAFAYPDDDK [QP745]", "units text": "min", "RS ADMA-X": 46.9}

----------
Molecular target: PS621 (Kluyveromyces lactis, UniProt O60014, E174T/N105S/N176F/R116K/S153T/V146T)
Construct: PS621; […]
Assay: Dynamic single-molecule sequencing, recognition by PS621
Assay type: binding
Conditions: unmodified arginine peptide, average of 10 sequencing reactions
Known PW of R-X of a selection of sequences
endpoint name: PW of R-X (s)

{"sequence record": "LRLAFAYPDDDK [QP707]", "units text": "s", "censoring sign": "=", "meas value": 0.47}
{"sequence record": "LREAFAYPDDDK [QP938]", "units text": "s", "censoring sign": "<", "meas value": 0.06}
{"sequence record": "LRIAFAYPDDDK [QP749]", "units text": "s", "censoring sign": "=", "meas value": 0.28}
{"sequence record": "LRSAFAYPDDDK [QP748]", "units text": "s", "censoring sign": "<", "meas value": 0.12}
{"sequence record": "LRQAFAYPDDDK [QP941]", "units text": "s", "censoring sign": "<", "meas value": 0.06}
{"sequence record": "LRAAFAYPDDDK [QP747]", "units text": "s", "censoring sign": "<", "meas value": 0.12}
{"sequence record": "LRVAFAYPDDDK [QP943]", "units text": "s", "censoring sign": "=", "meas value": 0.41}
{"sequence record": "LRYAFAYPDDDK [QP746]", "units text": "s", "censoring sign": "=", "meas value": 0.18}
{"sequence record": "LRTAFAYPDDDK [QP942]", "units text": "s", "censoring sign": "<", "meas value": 0.06}

----------
Target: PS621 (Kluyveromyces lactis, UniProt O60014, E174T/N105S/N176F/R116K/S153T/V146T)
Construct: PS621; […]
Assay: Dynamic single-molecule sequencing, recognition by PS621
Assay type: binding
Conditions: ADMA peptide, average of 10 sequencing reactions
Let's look at some sequences and their measured PW of ADMA-X.

{"sequence record": "LRADMAEAFAYPDDDK [QP939]", "units text": "s", "censoring sign": "=", "PW of ADMA-X": 0.34}
{"sequence record": "LRADMASAFAYPDDDK [QP744]", "units text": "s", "censoring sign": "=", "PW of ADMA-X": 0.55}
{"sequence record": "LRADMALAFAYPDDDK [QP729]", "units text": "s", "censoring sign": "=", "PW of ADMA-X": 0.48}
{"sequence record": "LRADMAVAFAYPDDDK [QP946]", "units text": "s", "censoring sign": "=", "PW of ADMA-X": 0.32}
{"sequence record": "LRADMAAAFAYPDDDK [QP743]", "units text": "s", "censoring sign": "=", "PW of ADMA-X": 0.19}
{"sequence record": "LRADMAQAFAYPDDDK [QP944]", "units text": "s", "censoring sign": "=", "PW of ADMA-X": 0.21}
{"sequence record": "LRADMAYAFAYPDDDK [QP742]", "units text": "s", "censoring sign": "=", "PW of ADMA-X": 0.25}
{"sequence record": "LRADMATAFAYPDDDK [QP945]", "units text": "s", "censoring sign": "<", "PW of ADMA-X": 0.06}
{"sequence record": "LRADMAIAFAYPDDDK [QP745]", "units text": "s", "censoring sign": "=", "PW of ADMA-X": 0.32}
